Provide the recorded TGI for the entries that follow.
# Tested on: HOP-18 NSCLC
# protocol_text: NCI tumour cell line growth inhibition, 48 h

Recorded TGI of O=C1c2ccccc2C2(O)c3cc4ccccc4cc3OC12O (stereo not drawn) , please.
> 100 µM

// query: CCOC(=O)C1(c2ccccc2)CCC(=O)CC1
> 100 µM

// query: O=C(O)CSc1n[nH]c(-c2ccccc2)n1
> 100 µM

###

# Tested on: HCT-15 colon
# protocol_text: NCI tumour cell line growth inhibition, 48 h
readout_name: TGI (µM)
Supply the numeric figure in µM, leaving out any unit text.

Recorded TGI of O=C(CC(=O)c1ccccc1)CC(O)(c1ccccc1)c1ccccc1 , please.
23

// query: CC#C[P+](c1ccccc1)(c1ccccc1)c1ccccc1
35.8

// query: Nc1nccc2c1ccn2-c1ccc(NC(=O)c2ccc(N3CCOCC3)c(C(F)(F)F)c2)cc1
10.5

// query: N#Cc1c(-c2ccc(F)cc2)c(-c2ccc(F)cc2)nn(CCO)c1=O
8.6

###

# System: M14 melanoma
# protocol_text: NCI tumour cell line growth inhibition, 48 h
readout_name: TGI (µM)
Supply the numeric figure in µM, leaving out any unit text.

Recorded TGI of CCCCCCNC(=O)c1nc(-c2ccccc2)oc1Cc1ccc(OP(=O)(O)O)cc1 , please.
35.5

// query: NCCCNCCCCNCCCN
29.4

// query: C[C@H]1NC(=O)C2CCCCN2C(=O)CN(C)C(=O)CNC(=O)C2CCCCN2C(=O)[C@@H](NC(=O)c2nc3ccccc3cc2O)[C@@H](C)NC(=O)C2CCCCN2C(=O)CN(C)C(=O)CNC(=O)[C@@H]2CCCCN2C(=O)C1NC(=O)c1nc2ccccc2cc1O (stereo not given in full)
1.27

// query: CC(C)(C)c1cc(C(=O)/C=C/C=C/c2ccccc2)cc(C(C)(C)C)c1O
41.4

// query: O=[N+]([O-])c1cc2c(c3nonc13)OCCCCO2
17.9

// query: Cn1c(=O)c2c(no[n+]2[O-])c2ccccc21
25.3

// query: N#C/C=C(\c1ccc([N+](=O)[O-])cc1)n1nnc2cc(Cl)c(Cl)cc21
4.5

###

Provide the recorded TGI for the entries that follow.
# Tested on: LXFL 529 NSCLC
# protocol_text: NCI tumour cell line growth inhibition, 48 h

Recorded TGI of CN(C)c1c([O-])c(=[N+](C)C)c1=O , please.
> 100 µM

// query: CCOc1ccc(N2C(=O)/C(=C/c3ccc(N(CCC#N)CCC#N)cc3)N=C2c2cc([N+](=O)[O-])ccc2Cl)cc1
95 µM

// query: CC(=O)OC1(C#N)CC2OC1C1C2N=NN1C(=O)OC(C)(C)C (stereo unspecified)
> 100 µM

// query: O=c1[nH]cc(COCCO)c(=O)[nH]1
> 100 µM

// query: O=[N+]([O-])c1ccc(-n2nnc(C3=NCCN3)c2-c2ccc(Cl)cc2)cc1
> 100 µM

// query: CC(=O)n1c2c(c(=O)n1-c1ccccc1)S(=O)CCC2 (stereo unspecified)
> 100 µM

// query: O=C(CC(=O)c1ccccc1)CC(O)(c1ccccc1)c1ccccc1
17 µM

// query: CCOC(=O)C1(c2ccccc2)CCC(=O)CC1
> 100 µM

// query: O=C1c2ccccc2C2(O)c3cc4ccccc4cc3OC12O (stereo unspecified)
> 100 µM

// query: COc1cc2c(cc1O)C1C(O)C(O)C=C3CCN(C2)C31 (stereo unspecified)
34.9 µM

// query: CC#C[P+](c1ccccc1)(c1ccccc1)c1ccccc1
12.6 µM

###

# Test system: HL-60(TB) leukemia
# protocol_text: NCI tumour cell line growth inhibition, 48 h; in the data active = GI50 below about 0.43 µM; inactive = the rest
Entry note: the call must match one of active, inactive

Would you mind telling me which call this test gave CCOc1ccc2nc(S/C(=C/C=C(C#N)C#N)c3ccc(C)cc3)sc2c1 ?
inactive

// query: N#C/C=C(\c1ccc([N+](=O)[O-])cc1)n1nnc2cc(Cl)c(Cl)cc21
inactive

// query: COc1ccccc1N1CCN(CCCn2c(=O)c3c(OC)nc(C)cc3c(=O)n2-c2ccccc2)CC1
inactive

// query: CS(=O)(=O)CCCn1c(=O)c(Oc2ccc(F)cc2F)cc2cnc(NC3CCOCC3)nc21
inactive

// query: COc1ccncc1C#Cc1cncc(C(=O)Nc2ccc(CN3CCN(C)CC3)c(C(F)(F)F)c2)c1
inactive

// query: COc1ccc2[nH]cc(-c3nc(-c4c[nH]c5ncccc45)cs3)c2c1
inactive

// query: Nc1c(C(=O)Nc2cccc(Br)c2)sc2nc3c(cc12)C(=O)CCC3
active

// query: O=c1[nH]c(=O)n(C2CC(O)C(CO)O2)cc1CO (stereo not given)
inactive

// query: COc1cc(-c2nn(-c3cccc(NC(=O)Nc4ccc(Cl)c(Cl)c4)c3)cc2-c2ccncc2)ccc1Cl
inactive

// query: Cc1ccc(/C=C/c2c(C(=O)/C=C/c3ccc(C(F)(F)F)cc3)c(C)nc3ccccc23)cc1
inactive

###

# Tested on: TK-10 renal
# protocol_text: NCI tumour cell line growth inhibition, 48 h
readout_name: TGI

Recorded TGI of COc1cc2c(cc1O)C1C(O)C(O)C=C3CCN(C2)C31 (centres undefined) , please.
11.7 µM

// query: O=C(CSc1nnc(-c2ccc(N=Cc3ccc(Cl)cc3)cc2)o1)Nc1ccc(Cl)cc1
> 100 µM

// query: O=C1C[C@H]2[C@@H](O1)[C@@H](O)CN1C(=O)c3ccccc3[C@H]21
> 100 µM

// query: C[C@H]1NC(=O)C2CCCCN2C(=O)CN(C)C(=O)CNC(=O)C2CCCCN2C(=O)[C@@H](NC(=O)c2nc3ccccc3cc2O)[C@@H](C)NC(=O)C2CCCCN2C(=O)CN(C)C(=O)CNC(=O)[C@@H]2CCCCN2C(=O)C1NC(=O)c1nc2ccccc2cc1O (some centres undefined)
> 100 µM

// query: COc1ccc(-c2c(C#N)c(O)n(NS(=O)(=O)c3ccc(C)cc3)c(=O)c2C#N)cc1
> 100 µM

// query: O=c1c2c(-c3ccccc3)onc2n(-c2ccccc2)c(=O)n1-c1ccccc1
58.2 µM

// query: O=C(O)CSc1n[nH]c(-c2ccccc2)n1
> 100 µM

// query: O=S(=O)(O)c1ccc(N=Nc2ccc(N=Nc3c(O)ccc4ccccc34)cc2)cc1
> 100 µM

// query: COc1cc(C2SCC(=O)N2c2ccc(Cl)c(Cl)c2)cc(OC)c1OC (centres undefined)
> 100 µM

// query: COc1ccc(/C(=N\NC(=O)C(N)=O)C(c2ccc(OC)cc2)C2(O)C(=O)Nc3c(Cl)cccc32)cc1 (centres undefined)
> 100 µM

// query: O=C(N/N=C1/C(=O)N(c2ccc(Cl)cc2Cl)C(=O)C(=O)C1c1nc2ccccc2o1)c1ccccc1O (centres undefined)
> 100 µM

// query: CSc1ncnc2c1cnn2CCCCO
> 100 µM

// query: COc1c(OC)c(OC)c(C(=O)/C=C/c2ccccc2)c(OC)c1OC
26.4 µM

// query: CC(C)C[C@H]1[C@@H](OCc2ccccc2)COS(=O)N1[C@H](C)c1ccccc1 (some centres undefined)
> 100 µM

// query: C[C@H]1Oc2cc(cnc2N)-c2c(nn(C)c2C#N)CN(C)C(=O)c2ccc(F)cc21
> 100 µM

// query: C[C@H]1C2Cc3cc(N)ccc3[C@@]1(C)CCN2CCc1ccccc1
> 100 µM

// query: Cc1nc2ccccc2nc1-c1ccc(N=[N+]([O-])c2ccc(-c3nc4ccccc4nc3C)cc2)cc1
50.5 µM

// query: C=CC(=O)N1CCC(C2CCNc3c(C(N)=O)c(-c4ccc(Oc5ccccc5)cc4)nn32)CC1 (centres undefined)
11.6 µM

// query: N#C/C(N)=C(\C#N)NC=NCc1ccccc1
> 100 µM

###

# Tested on: HCT-116 colon
# protocol_text: NCI tumour cell line growth inhibition, 48 h
readout_name: TGI

Recorded TGI of O=C1CC(C[C@H](O)C2CCCCC2O)CC(=O)N1Cc1ccccc1 (stereo partly specified) , please.
> 100 µM

// query: COC1C(O)=C2C(=O)O/C(C)=C/C=C/C=C/C=C\CC(c3ccccc3)NC(=O)\C=C/C=C\C=C\C=C\[C@@]2(C)[C@@H]1O (stereo partly specified)
0.0198 µM

// query: CC1C[C@]2(C)C(=O)Nc3ccccc3[C@@H]2Nc2ccccc21 (stereo partly specified)
33.6 µM

// query: COc1cc(C2SCC(=O)N2c2ccc(Cl)c(Cl)c2)cc(OC)c1OC (stereo unspecified)
> 100 µM

// query: CS(=O)(=O)CCCn1c(=O)c(Oc2ccc(F)cc2F)cc2cnc(NC3CCOCC3)nc21
> 25 µM

// query: Cc1cn2c(/C=C3\C(=O)Nc4ccc(O)cc43)c(-c3ccc(Cl)cc3)nc2s1
42.5 µM

// query: CC1(C)OC2C(O)CN3CCS[C@H]3C2O1 (stereo partly specified)
> 100 µM

// query: CC(C)(C)NC(=O)N1N=C(c2ccccc2)C1c1ccccc1 (stereo unspecified)
52.8 µM

// query: N#C/C(N)=C(\C#N)NC=NCc1ccccc1
> 100 µM

// query: Cc1cccc(C(C)C)c1NC(=O)CC1Sc2ccccc2NC1=O (stereo unspecified)
> 100 µM

// query: C[C@H]1Oc2cc(cnc2N)-c2c(nn(C)c2C#N)CN(C)C(=O)c2ccc(F)cc21
> 100 µM

// query: CCOC(=O)c1ccc(C(=O)/C(C#N)=C2\CCCN2C)[nH]1
> 100 µM

// query: O=C(CC(=O)c1ccccc1)CC(O)(c1ccccc1)c1ccccc1
16.6 µM

// query: COc1ccc(C(OCC2OC(n3cc(C)c(=O)[nH]c3=O)CC2n2cc(Cn3cc(Br)c(=O)[nH]c3=O)nn2)(c2ccccc2)c2ccccc2)cc1 (stereo unspecified)
> 100 µM

// query: Cn1cnc([N+](=O)[O-])c1S(=O)(=O)Oc1ccccc1
13.2 µM

// query: O=C(NC(=O)c1cn(CCNCCO)c(=O)[nH]c1=O)OCc1ccccc1
> 100 µM

// query: O=C(CCc1cc(O)cc(O)c1)NCCc1cc(O)cc(O)c1
> 100 µM

// query: Cc1ccc(-c2nc3ccc([N+](=O)[O-])cc3[nH]2)cc1
> 100 µM

// query: O=S(Cc1ccccn1)c1nc2ccccc2nc1-c1ccccc1 (stereo unspecified)
> 100 µM

// query: CC(=O)Nc1ccc(-c2nc3cc(Cl)ccc3o2)cc1
> 50 µM

// query: CCc1c(OC(C)=O)c2c(NC3OC(COC(C)=O)C(OC(C)=O)C(OC(C)=O)C3OC(C)=O)nc(OC)nc2oc1=O (stereo unspecified)
> 100 µM
